assay: NCI Yeast Anticancer Drug Screen. Data for the cln2 rad14 strain (AID 165);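 further: 0% = growth equal to vehicle treated cultures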; conditions: S. cerevisiae cln2 rad14 strain, at 50.0 µM, hits give high values
Compounds without any hit were thinned out: in the full panel of roughly 79,000, 15% have a hit.
Collected growth inhibition values appear next to each entry.

- compound: "CC(N)(C(=O)O)c1ccccc1 (stereo not drawn)"
  growth inhibition [%]: -25.2
- compound: "CCCCCCOC(=O)c1cccc(C)c1"
  growth inhibition [%]: -35
- compound: "CN(CC(=O)NC(=O)c1ccccc1)c1ccccc1"
  growth inhibition [%]: -0.75

====

Collected growth inhibition values appear next to each entry.
test: NCI Yeast Anticancer Drug Screen. Data for the cln2 rad14 strain (AID 165);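 further: 0% = growth equal to vehicle treated cultures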; conditions: S. cerevisiae cln2 rad14 strain, at 50.0 µM, hits give high values
Compounds without any hit were thinned out: in the full panel of roughly 79,000, 15% have a hit.

- compound: "O=C(O)CCn1ccc2ccccc21"
  growth inhibition [%]: 5.9
- compound: "O=C(NC1CCCCC1)OCc1c(COC(=O)NC2CCCCC2)c2cccn2c2c1cnn2-c1ccccc1"
  growth inhibition [%]: 3.1
- compound: "COC(=O)C(=O)c1c(C(=O)OC)nc2nnc(N)n2c1-c1ccc(OC)cc1"
  growth inhibition [%]: -26.5
- compound: "COc1ccccc1C(=O)C1OC1c1ccc(Cl)cc1Cl (stereo not drawn)"
  growth inhibition [%]: -32
- compound: "CC(=O)/C(=C\\c1ccc([N+](=O)[O-])o1)C(=O)CCN(C)C"
  growth inhibition [%]: 22.9
- compound: "Cc1ccn2c(-c3ccccc3)nnc2c1"
  growth inhibition [%]: -11.8
- compound: "CCCCOC(=O)C(C)OC(=O)Nc1ccccc1 (stereo not drawn)"
  growth inhibition [%]: -52.6
- compound: "CCOC(=O)[C@H]1CSC[C@@H](C(=O)OC)N1"
  growth inhibition [%]: 4.45
- compound: "O=C(c1ccc(Cl)cc1)C(Br)C(C[N+](=O)[O-])c1ccccc1 (stereo not drawn)"
  growth inhibition [%]: 97.2
- compound: "Cc1ccc(S(=O)(=O)N2CCSCCN(S(=O)(=O)c3ccc(C)cc3)CCN(S(=O)(=O)c3ccc(C)cc3)CC2)cc1"
  growth inhibition [%]: -19.9
- compound: "N#Cc1nc(/C=C/c2cccnc2)oc1N"
  growth inhibition [%]: -3.65
- compound: "CCc1c(C#N)c(=O)[nH]c(=O)n1CCN1CCN(C(=O)NCCCCCCNC(=O)N2CCN(CCn3c(CC)c(C#N)c(=O)[nH]c3=O)CC2)CC1"
  growth inhibition [%]: -23.6
- compound: "CCOC(=O)C1CC(C)c2[nH]c3ccccc3c21 (stereo not drawn)"
  growth inhibition [%]: -25
- compound: "CCOC(=O)c1cnc(=S)[nH]c1N"
  growth inhibition [%]: 7.9
- compound: "N#CCCN(CCC#N)c1ccc(C=Nc2ccc(F)cc2)cc1"
  growth inhibition [%]: 15.8
- compound: "CCN(CC)C(=O)/C(C)=C(\\C)c1ccccc1"
  growth inhibition [%]: 8.3
- compound: "CC(C)C(=O)OCc1ccccc1"
  growth inhibition [%]: -3.9
- compound: "O=C(CN1CCCC1=O)CS(=O)(=O)c1ccccc1"
  growth inhibition [%]: -0.6
- compound: "Cc1ccc(-n2ncc3c(N)ncnc32)cc1"
  growth inhibition [%]: -19
- compound: "CN(C)c1ccc2oc3ccccc3c2c1"
  growth inhibition [%]: -23.9
- compound: "CCOC1CSc2ccccc2C(c2ccccc2)=N1 (stereo not drawn)"
  growth inhibition [%]: 10.6
- compound: "COC1=CC(=O)C(CCC(C)=O)=CC1=O"
  growth inhibition [%]: -16.4
- compound: "C=C1CN=C(Nc2ccc(F)cc2F)S1"
  growth inhibition [%]: 8.15
- compound: "CN(C)CCOc1ccccn1"
  growth inhibition [%]: 7.75
- compound: "COC(=N)c1nnn(-c2ccccc2)n1"
  growth inhibition [%]: -16.1
- compound: "N/C=N/OC(=O)c1ccccc1"
  growth inhibition [%]: 4.7
- compound: "COC(=O)CC1CSCC1=O (stereo not drawn)"
  growth inhibition [%]: -12.5
- compound: "BrC1CC2CCCCC2CC1Br (stereo not drawn)"
  growth inhibition [%]: -9.75
- compound: "CCC1(COC(NC(=O)c2ccccc2)(C(F)(F)F)C(F)(F)F)COC1"
  growth inhibition [%]: 14.1
- compound: "c1csc(-c2cc(-c3cccs3)c(-c3ccsc3)s2)c1"
  growth inhibition [%]: -26.2
- compound: "Cc1ccc(NC(=O)C2CCN(C)CC2)cc1"
  growth inhibition [%]: -23.4
- compound: "COc1cccc(NC(=S)NC(=O)c2ccccc2)c1"
  growth inhibition [%]: 37
- compound: "Cc1c(C)c(C)c(S(=O)(=O)NCCNS(=O)(=O)c2c(C)c(C)c(C)c(C)c2C)c(C)c1C"
  growth inhibition [%]: 15.3
- compound: "COC(=O)/C(C=Nc1ccccc1)=C(/C)O"
  growth inhibition [%]: -29.2
- compound: "NC1(N)ON(c2ccc(C=O)cc2)C(c2ccc([N+](=O)[O-])cc2)S1 (stereo not drawn)"
  growth inhibition [%]: 16.3
- compound: "CCCCCCCCC(=O)OCC(=O)c1ccc(-c2ccccc2)cc1"
  growth inhibition [%]: -7.85
- compound: "CC(=O)Nc1ccc(I)cc1"
  growth inhibition [%]: -0.8
- compound: "CC1CCCC(=O)CC1 (stereo not drawn)"
  growth inhibition [%]: 16.3

====

Collected growth inhibition values appear next to each entry.
experiment: NCI Yeast Anticancer Drug Screen. Data for the sgs1 mgt1 strain (AID 161);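 further: 0% = growth of cultures given vehicle only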; conditions: S. cerevisiae sgs1 mgt1 strain, at 50.0 µM, hits give high values
This is part of a sample that, as a whole, favours compounds with a hit. Of some 79,000 tested, about 15% had one in any assay.
measured attribute: growth inhibition (%)

- molecule: "CCN(CC)CCC(=O)c1cnc(-c2ccccc2)nc1C"
  measured attribute: "growth inhibition"
  measured: 38.7
- molecule: "O=C1CSc2nc3ccc(Br)cc3c(=O)n21"
  measured attribute: "growth inhibition"
  measured: 11.2
- molecule: "OCC(O)C(O)C(O)CN=Cc1ccccc1O (stereo unspecified)"
  measured attribute: "growth inhibition"
  measured: 10.4
- molecule: "COc1ccc2cc(C(C)C(O)c3cc(F)c(F)c(F)c3F)ccc2c1 (stereo unspecified)"
  measured attribute: "growth inhibition"
  measured: -10.7
- molecule: "CC(C)(C)/C(=N\\O)c1ccccc1"
  measured attribute: "growth inhibition"
  measured: -23.3
- molecule: "COc1ccc2c(c1)C/C(=C\\c1ccc(O)c(OC)c1)C2=O"
  measured attribute: "growth inhibition"
  measured: -33.5
- molecule: "N=C1N=Nc2nc(C(C(=O)c3ccc(O)cc3O)c3nc4n(c3O)C(=N)N=N4)c(O)n21 (stereo unspecified)"
  measured attribute: "growth inhibition"
  measured: 7.15
- molecule: "N=C(CC(=O)Nc1ccccn1)c1ccccc1"
  measured attribute: "growth inhibition"
  measured: -23.3
- molecule: "C=C(NC(C)=O)C(=O)CCC(N)=O"
  measured attribute: "growth inhibition"
  measured: -7.5
- molecule: "C[n+]1c(/C=C/c2ccc3c(c2)OCO3)ccc2ccccc21"
  measured attribute: "growth inhibition"
  measured: 22
- molecule: "CC(=O)[C@@]1(O)CC[C@H]2[C@@H]3C[C@H](C)C4=CC(=O)CC[C@]4(C)[C@H]3[C@@H](O)C[C@@]21C"
  measured attribute: "growth inhibition"
  measured: -19.1

====

experiment: NCI Yeast Anticancer Drug Screen. Data for the sgs1 mgt1 strain (AID 161);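 further: 0% = growth of cultures given vehicle only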; conditions: S. cerevisiae sgs1 mgt1 strain, at 50.0 µM, hits give high values
This is part of a sample that, as a whole, favours compounds with a hit. Of some 79,000 tested, about 15% had one in any assay.

- compound: "CC(=O)NC(C)NC(C)=O"
  growth inhibition (%): -13.8
- compound: "COc1cc(O)c2c(c1)C(=O)c1cc(C)cc(O)c1C2=O"
  growth inhibition (%): -18.6
- compound: "O=[N+]([O-])c1ccc2c(c1)C(=Nc1ccc(Cl)cc1)c1ccccc1-2"
  growth inhibition (%): -8
- compound: "Nc1ccc(C(=O)c2ccccc2)cc1"
  growth inhibition (%): 25.4
- compound: "COc1ccc(-c2ccc(Cc3ccc(-c4ccc(OC)cc4)o3)o2)cc1"
  growth inhibition (%): 6.7
- compound: "O=C1Sc2ccccc2C(=O)N2CCCC12 (stereo not drawn)"
  growth inhibition (%): -11.5
- compound: "COC(=O)C12C3C4C1C1C2C3C41C(=O)OC(C)(C)C (stereo not drawn)"
  growth inhibition (%): 9.2
- compound: "CC1CCc2cc(Br)ccc2N1N (stereo not drawn)"
  growth inhibition (%): -5.35
- compound: "COC(=O)CC[C@@H](NC(=O)C(C)NC(=O)COC1C(O)C(COC(=O)CCCCCCCCCCNC(=O)c2ccc([N+](=O)[O-])c3[nH]c4cc(Br)ccc4c(=O)c23)OC(OCc2ccccc2)C1NC(C)=O)C(N)=O (stereo partly drawn)"
  growth inhibition (%): -17.6
- compound: "CCOC(=O)CCCCCC(C(=O)OCC)c1nc2ccccc2[nH]c1=O (stereo not drawn)"
  growth inhibition (%): 10.9
- compound: "C=CN1C(=O)c2ccccc2C1=O"
  growth inhibition (%): -8.95
- compound: "O=S(=O)(/C=C/c1ccc(F)cc1)Cc1ccccc1"
  growth inhibition (%): 0.65
- compound: "CC1(C)C=Cc2c(cc(O)c3c(=O)c4cc(Cl)ccc4[nH]c23)O1"
  growth inhibition (%): -14.8
